Numbers sourced from the RNAGym collection of RNA variant scans (doi:10.1093/molbev/msab373).

Answer each item with its documented reverse-splicing fitness.
B1: Azoarcus group I ribozyme (parent)
chain: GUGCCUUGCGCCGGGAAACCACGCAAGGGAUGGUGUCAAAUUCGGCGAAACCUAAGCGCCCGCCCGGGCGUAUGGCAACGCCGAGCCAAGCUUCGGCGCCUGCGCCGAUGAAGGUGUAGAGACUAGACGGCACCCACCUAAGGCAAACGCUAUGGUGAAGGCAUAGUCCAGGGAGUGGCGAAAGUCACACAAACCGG

# Variants of: B1
# protocol.summary: reverse-splicing fitness (ratio to wild type); higher = more active; in vitro selection; Mg2+ level not given
Form: value (number only, do not type unit).

Inquiry: # reverse-splicing fitness lookup, item C82G A120C A145G C169G
Reply text: 0.00863

Inquiry: Endpoint output: reverse-splicing fitness of C82A A111U A145C C150G U176G . Value?
Reply text: 0.00428

Inquiry: Quick one: reverse-splicing fitness for C82A A111C A120G C169G U176G ?
Reply text: 0.00494

Inquiry: Return reported reverse-splicing fitness; argument: C82A A111C A120G C150U C169G
Reply text: 0.00891

Inquiry: Quick check: reverse-splicing fitness of C82G A111C A120C A145G C150U C169A U176A ?
Reply text: 0.0153

Inquiry: Return reported reverse-splicing fitness; argument: A111G C150G
Reply text: 0.363

Inquiry: Need reverse-splicing fitness, item C82A A111U A145U C150G C169A U176C
Reply text: 0.0109

Inquiry: Name the recorded reverse-splicing fitness for C82U A120U A145G C150U C169U .
Reply text: 0.00625

Inquiry: So what does the record say about reverse-splicing fitness for C82U A120U A145G C150G C169U U176G ?
Reply text: 0.00348

Inquiry: # input variant: A111U A120G A145U ; wanted: its reverse-splicing fitness
Reply text: 0.172

Inquiry: Please report the recorded reverse-splicing fitness for C82U A111C A145C C150A C169G U176A .
Reply text: 0.024

Inquiry: Name the reported reverse-splicing fitness value associated with the variant C82A A111C A145C C150G C169G U176G
Reply text: 0.00714

Inquiry: Look up reverse-splicing fitness for this variant: C82U A120G A145U C150G U176A
Reply text: 0.00575

Inquiry: Name the recorded reverse-splicing fitness for C82U A111C C169A U176G .
Reply text: 0.00617

Inquiry: Quick one: reverse-splicing fitness of C82G A111C A120U A145U C150U C169A U176A ?
Reply text: 0.00282

Inquiry: Query: reverse-splicing fitness; subject: C82U A111U A120G A145U C150U C169A U176G
Reply text: 0.00462

Inquiry: For the variant A111G A120G C169U U176C , what reverse-splicing fitness is on record?
Reply text: 0.0969

Inquiry: # reverse-splicing fitness lookup, item C82U A111G A120G A145G C169U U176C
Reply text: 0.0164

Inquiry: Name the recorded reverse-splicing fitness for A111G A120U C169U U176C .
Reply text: 0.0395

Inquiry: Fill in the blank: the reported reverse-splicing fitness of A111C A120C A145G C150U U176C is ____.
Reply text: 0.18

Inquiry: Reported reverse-splicing fitness for C82U A145G C150A : what is it?
Reply text: 0.103

Inquiry: Which reverse-splicing fitness reading was recorded for the variant C82U A120U C150G U176A ?
Reply text: 0.00531

Inquiry: For the variant shown here, C82A A111G A120C A145C C150A C169U U176G , give the reported reverse-splicing fitness.
Reply text: 0.00607

Inquiry: Quick check: reverse-splicing fitness of C82G A111U A120C A145G C150A C169G U176G ?
Reply text: 0.00823

Inquiry: reverse-splicing fitness for C82U A111G A145U C150A C169U ?
Reply text: 0.0083

Inquiry: Could you tell me which reverse-splicing fitness is on file for C82G A111C A120U A145G C150G C169G U176G ?
Reply text: 0.00427

Inquiry: Record request: reverse-splicing fitness value, item C82A A111C A120G A145C C150U C169G U176G
Reply text: 0.00558

Inquiry: # lookup: reverse-splicing fitness of C82G A111U A120U A145G C150A C169U U176C
Reply text: 0.00514

Inquiry: Query: reverse-splicing fitness; subject: C82G A111C A120G A145C C150U C169G U176G
Reply text: 0.00541

Inquiry: Can you share its reverse-splicing fitness? I mean this variant: C82G A120G A145C C150U C169U U176G
Reply text: 0.00404

Inquiry: Would you mind telling me what reverse-splicing fitness value was observed for C82U A120G A145C C150U U176A ?
Reply text: 0.00845

Inquiry: What does the record list as reverse-splicing fitness for C82G A111U A120C C150G C169U U176G ?
Reply text: 0.00705

Inquiry: Give its reverse-splicing fitness value. Item: C82U A111G A120C A145U C150G U176G
Reply text: 0.00286

Inquiry: Recorded reverse-splicing fitness for C82U A120C A145C C150G C169A , please?
Reply text: 0.00723

Inquiry: Any idea what reverse-splicing fitness was measured for A111U C150A C169A ?
Reply text: 0.0111

Inquiry: Looking for the measured reverse-splicing fitness of A120C A145G C169A U176G , can you help?
Reply text: 0.00471

Inquiry: Form field: reported reverse-splicing fitness of C82A A111C A120U C150G U176G
Reply text: 0.00249

Inquiry: Please give the measured reverse-splicing fitness for this variant: C82A A111C A120U A145C C150A C169G U176A
Reply text: 0.0036

Inquiry: Could you tell me which reverse-splicing fitness is on file for C82G A120C C150G C169G U176G ?
Reply text: 0.00538

Inquiry: Item C82G A120C A145U C150U C169G U176C has what recorded reverse-splicing fitness?
Reply text: 0.015

Inquiry: Quick one: reverse-splicing fitness for C82A A120U A145G C150A ?
Reply text: 0.0231

Inquiry: Give the measured reverse-splicing fitness of C82G A120G A145C C150A C169U .
Reply text: 0.00751

Inquiry: What does the data say about its reverse-splicing fitness? Entry: C82G A111U A120G C150U C169G U176A
Reply text: 0.0168

Inquiry: reverse-splicing fitness for C82U A120C A145C C169G ?
Reply text: 0.00713

Inquiry: Quick one: reverse-splicing fitness for C82U A120G A145G C150A U176G ?
Reply text: 0.00584

Inquiry: Would you mind telling me what reverse-splicing fitness value was observed for C82G A111G A120C A145U C169A U176A ?
Reply text: 0.0147

Inquiry: Report reverse-splicing fitness for C82G A111G A120U A145G C169A U176G please.
Reply text: 0.00176

Inquiry: // query reverse-splicing fitness value for entry C82G A111G A120U A145U C150U U176C
Reply text: 0.0184

Inquiry: What does the data say about its reverse-splicing fitness? Entry: C82A A111U A120U A145G U176G
Reply text: 0.00319

Inquiry: Need reverse-splicing fitness of A111G A120C A145G U176G , thanks.
Reply text: 0.0972

Inquiry: Find the recorded reverse-splicing fitness belonging to C82A A111G A120U A145U and report it.
Reply text: 0.0342

Inquiry: Fill in: reverse-splicing fitness of C82U A111G A120C C169G is ___
Reply text: 0.00773

Inquiry: # input variant: C82U A111G A120G C150G U176G ; wanted: its reverse-splicing fitness
Reply text: 0.0029

Inquiry: Give its reverse-splicing fitness value. Item: C82G A111U A120C A145U C150G C169G U176G
Reply text: 0.00592

Inquiry: If you can, please state the reported reverse-splicing fitness value of C82G A111C A120U A145U C150G U176A .
Reply text: 0.00411

Inquiry: Name the recorded reverse-splicing fitness for C82A A111C A120G A145C C150U .
Reply text: 0.00926

Inquiry: What value of reverse-splicing fitness has been reported for the following variant? A111U A120G C150A C169A U176A
Reply text: 0.0237

Inquiry: Return reported reverse-splicing fitness; argument: A111U A145G C150U C169U U176G
Reply text: 0.00652

Inquiry: # reverse-splicing fitness lookup, item C82U A111U A120G C150U U176G
Reply text: 0.00537

Inquiry: What value of reverse-splicing fitness has been recorded for this entry: C82U A120G A145U C150A C169A
Reply text: 0.00815

Inquiry: Quick one: reverse-splicing fitness for A111C A120G A145G C169A U176G ?
Reply text: 0.00458

Inquiry: Which value of reverse-splicing fitness has been reported for C82A A120G A145C C150U C169U U176G in the records?
Reply text: 0.00407

Inquiry: # query: reverse-splicing fitness of entry C82A A111U A120G A145C C150G C169A
Reply text: 0.00846

Inquiry: What measured reverse-splicing fitness goes with C82G A111C A120G A145U C150G C169A U176C ?
Reply text: 0.0101

Inquiry: Given A145G C150G C169U , state its recorded reverse-splicing fitness.
Reply text: 0.0734

Inquiry: I'd like to know its reverse-splicing fitness. The variant in question is C82A A120U A145G C150G C169G U176G
Reply text: 0.00415

Inquiry: Which value of reverse-splicing fitness has been reported for C82G A120C A145G C169A U176C in the records?
Reply text: 0.0247

Inquiry: // returns reported reverse-splicing fitness for input A111C A120G A145C C150A C169A U176C
Reply text: 0.00698

Inquiry: // lookup reverse-splicing fitness for C82A A111C A120C A145U C150A U176G
Reply text: 0.00638

Inquiry: Returns the measured reverse-splicing fitness for the input variant. Input: A145C C150U U176A
Reply text: 0.613

Inquiry: Suppose we examine the variant C82A A111G A120C A145C C150A U176A ; what reverse-splicing fitness value has been reported?
Reply text: 0.0102

Inquiry: Would you mind telling me what reverse-splicing fitness value was observed for C82U A111G A120G A145G C169A U176A ?
Reply text: 0.0215

Inquiry: Entry C82G A111U A120U A145U C150A C169G has what reverse-splicing fitness?
Reply text: 0.00289

Inquiry: // lookup reverse-splicing fitness for C82G A111U A120G A145U C150G U176C
Reply text: 0.0104

Inquiry: Param item = C82G A120U C150G C169U U176C ; retrieve measured reverse-splicing fitness.
Reply text: 0.00347

Inquiry: Sample C82G A111U A145G C150U C169G U176A — what was its reverse-splicing fitness?
Reply text: 0.0141

Inquiry: May I ask what reverse-splicing fitness has been recorded for C82G A111G A120G A145C C169A U176C ?
Reply text: 0.0114

Inquiry: Which value of reverse-splicing fitness has been reported for A120U A145U C150U C169A U176C in the records?
Reply text: 0.00496

Inquiry: Bench note: what reverse-splicing fitness did C82G A120C A145G C150G C169U U176G show?
Reply text: 0.00789

Inquiry: Which value of reverse-splicing fitness has been reported for A145G C169G U176G in the records?
Reply text: 0.00802

Inquiry: Recorded reverse-splicing fitness for A111C A120C A145U C150G U176A , please?
Reply text: 0.0202

Inquiry: Item C82U A111C A145G C150G C169A has what recorded reverse-splicing fitness?
Reply text: 0.0079

Inquiry: Which reverse-splicing fitness value belongs to C82A A120C C150A C169G U176A ?
Reply text: 0.021

Inquiry: State the recorded reverse-splicing fitness for this entry: C82U A111U A120C A145U C150A C169G
Reply text: 0.00687

Inquiry: May I ask what reverse-splicing fitness has been recorded for C82U A120G C150G U176G ?
Reply text: 0.00278

Inquiry: Requested read-out: reverse-splicing fitness. Entry: A111C C150G C169U U176C
Reply text: 0.014

Inquiry: Find the recorded reverse-splicing fitness belonging to C82A A111C A120G C169U and report it.
Reply text: 0.00841

Inquiry: For the variant shown here, C82G A111G A120U C169U , give the reported reverse-splicing fitness.
Reply text: 0.00572

Inquiry: Form field: reported reverse-splicing fitness of C82U A111U C150A
Reply text: 0.031

Inquiry: Quick check: reverse-splicing fitness of C82U A111C A120G A145G C150A C169G U176G ?
Reply text: 0.00493

Inquiry: Fill in the blank: the reported reverse-splicing fitness of A120U A145U C169G is ____.
Reply text: 0.256
